Where do these numbers come from? They come from patent US20240190986A1.

ASSAY TARGET: T1, MSLN on SKOV3 and Aspc-1 tumor cells (UniProt Q13421 296-598)
T1 construct: whole, on cells; Endogenous mesothelin of tumor cell lines; also called SKOV3 tumor cell line; AsPC-1 tumor cell line
T1 sequence (Q13421 other isoform, or with tags, fused parts or gaps limits assumed): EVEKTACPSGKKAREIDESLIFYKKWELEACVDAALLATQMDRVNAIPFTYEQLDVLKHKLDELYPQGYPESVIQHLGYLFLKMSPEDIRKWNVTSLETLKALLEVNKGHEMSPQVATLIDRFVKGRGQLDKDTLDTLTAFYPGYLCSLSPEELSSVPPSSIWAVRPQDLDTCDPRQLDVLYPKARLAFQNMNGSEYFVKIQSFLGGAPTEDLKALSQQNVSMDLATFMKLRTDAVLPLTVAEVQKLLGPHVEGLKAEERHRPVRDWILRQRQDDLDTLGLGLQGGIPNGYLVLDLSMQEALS
PROTOCOL SUMMARY: flow cytometry on Aspc-1 tumor cells, anti-human IgG PE secondary, fitted curve
ENDPOINT LABEL: EC50 (nM)
Respond with the bare value in nM.

Returns the measured EC50 for the input binder. Input: M003-IgG4 (antibody, V domains shown, also called M003 heavy chain antibody) VH: QVQLVESGGGLVQAGGSLRLSCTASGNIFSINAMGWYRQPPGKEWERELVATISSTNSDNTYYKESVKGRFTISTNTAKNTWYLQMNSLKPEDTAMYYCAAENFDRKDRYWAQGTQVTVSS
5.31

Entry to check: M044-IgG4 (antibody, V domains shown, also called M044 heavy chain antibody) VH: QVQVVESGGGFVQAGGSLRLSCAASTPIISIAYMGWYRQISEKERQLVATINSGGKTYYADSVKGRFTISRDNAKNTLYLQMNMLKPEDTGMYYCAASNKDYNDYDPDWGQGTQVTVSS
17.4

Input M344-IgG4 (antibody, V domains shown, also called M344 heavy chain antibody) VH: QVQLVESGGGLVQSGGSLRLSCVASGSAFSFDAMGWYRQFSATRRERQLVVATSRDGRTYYADSVKGRFTATRDNSKNSLYLEMNSLKPEDTAIYYCAAGDDPKNYSWGQGTQVTVSS
3.59

Let us now turn to M129-IgG4 (antibody, V domains shown, also called M129 heavy chain antibody) VH: QVQLVESGGGSAQAGGSLILSCVASANLFTIDALGWYRQAPGPKRELVAAISSGGNKYYADAVKGRFTISRDTLTKTMWLQMNNLKPEDTAMYYCAAEDYGLGQRSWGMGTQVTVSS
2.79

And M119-IgG4 (antibody, V domains shown, also called M119 heavy chain antibody) VH: EVQLVESGGGLVQPGGSLRLSCVASGSDLSFDAMGWYRQFSATVRERQLVVATSRDGRIYYGDSVKGRFTASRDNLKNSVDLEMNNLKPEDTAIYYCAAGDDPKNYDWGPGTQVTVSS ?
4.25

What would you report for M156-IgG4 (antibody, V domains shown, also called M156 heavy chain antibody) VH: QVQLVESGGGLVQAGGSLRLSCAVSGISFEYYAIGWFRQAPGKEREAVSCTTSGTTSGGGVTDYADSLKGRFTISRDVAKNTVYLQMNNLTPEDTAVYYCAADIHCRGYVLFVPSDFGNWGQGTQVTVSS ?
5.37
